Reference source: patent US11173151B2

Biological target: human V1a receptor (Homo sapiens, UniProt P37288)
Construct: expressed in transfected cells; host or cells: CHO K1 (ATCC), also stably transfected with a modified aequorin
Sequence (P37288 whole entry): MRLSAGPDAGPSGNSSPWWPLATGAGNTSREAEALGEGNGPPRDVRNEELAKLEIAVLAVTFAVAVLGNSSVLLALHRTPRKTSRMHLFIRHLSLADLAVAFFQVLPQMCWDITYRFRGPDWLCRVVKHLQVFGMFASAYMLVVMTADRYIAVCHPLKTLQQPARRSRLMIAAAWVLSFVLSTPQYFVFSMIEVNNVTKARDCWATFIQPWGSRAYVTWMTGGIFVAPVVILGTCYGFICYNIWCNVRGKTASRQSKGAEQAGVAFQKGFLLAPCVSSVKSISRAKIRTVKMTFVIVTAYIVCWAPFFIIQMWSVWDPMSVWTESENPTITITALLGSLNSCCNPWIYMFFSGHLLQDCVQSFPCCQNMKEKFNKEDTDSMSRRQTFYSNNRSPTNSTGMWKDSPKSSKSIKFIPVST
Test: Cellular in vitro assay for determining vasopressin receptor activity, V1a receptor cell line (CHO, aequorin luminescence)
Format: cell-based
Details: selectivity ratio IC50 hV2 / IC50 hV1a
Protocol: B-1. Cellular In Vitro Assay for Determining Vasopressin Receptor Activity The identification of agonists and antagonists of the V1a and V2 vasopressin receptors from humans, rats and dogs as well as the quantification of the activity of the compounds of the invention is carried out using recombinant cell lines. […] The bioluminescence of the cell lines is detected using a suitable luminometer [Milligan G, Marshall F, Rees S, Trends in Pharmacological Sciences 17, 235-237 (1996)]. […]
Assignment: determine reported ratio IC50 hV2/hV1a for the given compounds.
One number for each entry.

As a guide, the following entries are already answered.
>  <Compound>
O=C(c1ccccc1-n1cnc(Cn2nc(-c3ccc(Cl)cc3)n(C[C@H](O)C(F)(F)F)c2=O)n1)N1CC[C@@H](O)C1

>  <ratio IC50 hV2/hV1a>
174.2

$$$$
>  <Compound>
CN1CCN(C(=O)c2ccccc2-n2cnc(Cn3nc(-c4ccc(Cl)cc4)n(C[C@H](O)C(F)(F)F)c3=O)n2)CC1

>  <ratio IC50 hV2/hV1a>
74.2

$$$$
>  <Compound>
O=C(c1cccc(Cl)c1-n1cnc(Cn2nc(-c3ccc(Cl)cc3)n(C[C@H](O)C(F)(F)F)c2=O)n1)N1CCOC(C(F)(F)F)C1 (mixture of isomers)

>  <ratio IC50 hV2/hV1a>
41.9

$$$$
>  <Compound>
CC(C)(C)CNC(=O)c1ccccc1-n1cnc(Cn2nc(-c3ccc(Cl)cc3)n(C[C@H](O)C(F)(F)F)c2=O)n1

>  <ratio IC50 hV2/hV1a>
103.8

$$$$
>  <Compound>
O=C(NCC(O)C(F)(F)F)c1ncccc1-n1cnc(Cn2nc(-c3ccc(Cl)cc3)n(C[C@H](O)C(F)(F)F)c2=O)n1 (mixture of isomers)

>  <ratio IC50 hV2/hV1a>
16.0

$$$$

Provide ratio IC50 hV2/hV1a for all items below, preserving their order.
1. O=C(c1cccc(Cl)c1-n1cnc(Cn2nc(-c3ccc(Cl)cc3)n(C[C@H](O)C(F)(F)F)c2=O)n1)N1CC2(COC2)C1
2. O=C(NCCC(F)(F)F)c1ccncc1-n1nc(Cn2nc(-c3ccc(Cl)cc3)n(C[C@H](O)C(F)(F)F)c2=O)nc1C(=O)N1CCS(=O)(=O)CC1
3. O=C(Nc1cccnc1-n1cnc(Cn2nc(-c3ccc(Cl)cc3)n(C[C@H](O)C(F)(F)F)c2=O)n1)C1CC1F (single isomer, unassigned) [Example 55]
4. Cc1nonc1CC(=O)Nc1ncccc1-n1cnc(Cn2nc(-c3ccc(Cl)cc3)n(C[C@H](O)C(F)(F)F)c2=O)n1
5. Cc1ccnc(NC(=O)c2ccccc2-n2cnc(Cn3nc(-c4ccc(Cl)cc4)n(C[C@H](O)C(F)(F)F)c3=O)n2)c1

[13.3, 0.7, 190.4, 61.0, 6.6]

# map each compound to its ratio IC50 hV2/hV1a
1. O=C(NC1CC1F)c1cccc(Cl)c1-n1cnc(Cn2nc(-c3ccc(Cl)cc3)n(C[C@@H](O)C(F)(F)F)c2=O)n1 (mixture of isomers)
2. CN(CC1CC1)C(=O)c1cccc(Cl)c1-n1cnc(Cn2nc(-c3ccc(Cl)cc3)n(C[C@H](O)C(F)(F)F)c2=O)n1

1: 390.4; 2: 36.8

====

Provide the recorded IC50 for the entries that follow.
Target: human V2 receptor (Homo sapiens)
Construct: expressed in transfected cells; host or cells: CHO K1 (ATCC) expressing firefly luciferase under a CRE-responsive promoter
Sequence (P30518 whole entry): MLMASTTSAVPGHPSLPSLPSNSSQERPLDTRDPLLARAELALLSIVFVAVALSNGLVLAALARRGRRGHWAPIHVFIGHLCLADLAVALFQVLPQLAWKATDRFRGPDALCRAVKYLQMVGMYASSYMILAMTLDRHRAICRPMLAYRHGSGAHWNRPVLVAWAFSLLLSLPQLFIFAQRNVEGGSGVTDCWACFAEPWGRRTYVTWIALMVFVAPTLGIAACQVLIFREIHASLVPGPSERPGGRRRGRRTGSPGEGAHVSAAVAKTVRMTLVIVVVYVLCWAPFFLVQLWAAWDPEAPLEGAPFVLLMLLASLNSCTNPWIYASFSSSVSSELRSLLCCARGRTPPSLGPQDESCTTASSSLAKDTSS
Assay: Cellular in vitro assay for determining vasopressin receptor activity, V2 receptor cell line (CHO, CRE-luciferase)
Assay type: cell-based
Details: CHO cell line transfected with human V2 receptor; [Arg8]-vasopressin at EC50 concentration, 3 hours; read-out: IC50 hV2
One number for each entry, in µM.

>  <Compound>
O=C(c1ccccc1-n1cnc(Cn2nc(-c3ccc(Cl)cc3)n(C[C@H](O)C(F)(F)F)c2=O)n1)N1CCSC1

>  <Study Target>
human V2 receptor (Homo sapiens)

>  <IC50 / µM>
0.855

$$$$
>  <Compound>
Cc1cc(C(=O)Nc2ncccc2-n2cnc(Cn3nc(-c4ccc(Cl)cc4)n(C[C@H](O)C(F)(F)F)c3=O)n2)no1

>  <Study Target>
human V2 receptor (Homo sapiens)

>  <IC50 / µM>
0.5

$$$$
>  <Compound>
Cc1ccc(F)c(NC(=O)c2ccccc2-n2cnc(Cn3nc(-c4ccc(Cl)cc4)n(C[C@H](O)C(F)(F)F)c3=O)n2)c1

>  <Study Target>
human V2 receptor (Homo sapiens)

>  <IC50 / µM>
0.175

$$$$
>  <Compound>
O=c1n(Cc2ncn(-c3cnccc3NCC(F)(F)F)n2)nc(-c2ccc(Cl)cc2)n1C[C@H](O)C(F)(F)F

>  <Study Target>
human V2 receptor (Homo sapiens)

>  <IC50 / µM>
0.445

$$$$
>  <Compound>
O=C(Nc1c(F)cc(F)cc1F)c1ccccc1-n1cnc(Cn2nc(-c3ccc(Cl)cc3)n(C[C@H](O)C(F)(F)F)c2=O)n1

>  <Study Target>
human V2 receptor (Homo sapiens)

>  <IC50 / µM>
0.285

$$$$
>  <Compound>
Nc1cccc(NC(=O)c2ccccc2-n2cnc(Cn3nc(-c4ccc(Cl)cc4)n(C[C@H](O)C(F)(F)F)c3=O)n2)n1

>  <Study Target>
human V2 receptor (Homo sapiens)

>  <IC50 / µM>
0.135

$$$$

// each compound listed below needs its IC50
1. O=C(Nc1cccnc1-n1cnc(Cn2nc(-c3ccc(Cl)cc3)n(C[C@H](O)C(F)(F)F)c2=O)n1)OCC(F)(F)F
2. NC(=O)[C@H]1CC(F)(F)CN1C(=O)c1cccc(Cl)c1-n1cnc(Cn2nc(-c3ccc(Cl)cc3)n(C[C@H](O)C(F)(F)F)c2=O)n1
3. O=C(c1ccccc1-n1cnc(Cn2nc(-c3ccc(Cl)cc3)n(C[C@H](O)C(F)(F)F)c2=O)n1)N1CCC(F)(F)CC1
4. O=C(c1cccc(Cl)c1-n1cnc(Cn2nc(-c3ccc(Cl)cc3)n(C[C@H](O)C(F)(F)F)c2=O)n1)N1CCC[C@H]1C(F)(F)F
5. Nc1ccc(NC(=O)c2ccccc2-n2cnc(Cn3nc(-c4ccc(Cl)cc4)n(C[C@H](O)C(F)(F)F)c3=O)n2)cc1

1. 0.957
2. 3.4
3. 1.54
4. 7.75
5. 0.185

Each of the following entries comes with a recorded value; kindly state IC50 for each.
1. O=C(Nc1ccc(F)cc1F)c1ccccc1-n1cnc(Cn2nc(-c3ccc(Cl)cc3)n(C[C@H](O)C(F)(F)F)c2=O)n1
2. O=C(Nc1ncccc1-n1cnc(Cn2nc(-c3ccc(Cl)cc3)n(C[C@H](O)C(F)(F)F)c2=O)n1)[C@@H]1C[C@@H]1F (racemic)
3. O=C1CCC(CNc2ncccc2-n2cnc(Cn3nc(-c4ccc(Cl)cc4)n(C[C@H](O)C(F)(F)F)c3=O)n2)N1 (stereo partly shown)
4. CC1CCCC(C)N1C(=O)c1ccccc1-n1cnc(Cn2nc(-c3ccc(Cl)cc3)n(C[C@H](O)C(F)(F)F)c2=O)n1 (mixture of isomers)

1: 0.505; 2: 2.34; 3: 0.69; 4: 1.08

Report IC50 for each item below.
1. O=C(Nc1ncccc1-n1cnc(Cn2nc(-c3ccc(Cl)cc3)n(C[C@H](O)C(F)(F)F)c2=O)n1)c1csnn1
2. O=C(Nc1cccnc1-n1cnc(Cn2nc(-c3ccc(Cl)cc3)n(C[C@H](O)C(F)(F)F)c2=O)n1)C1CCS(=O)(=O)C1 (single isomer, unassigned) [Example 52]
3. CC1CC(C)CN(C(=O)c2ccccc2-n2cnc(Cn3nc(-c4ccc(Cl)cc4)n(C[C@H](O)C(F)(F)F)c3=O)n2)C1 (mixture of isomers)
4. CC1CCCC(NC(=O)c2ccccc2-n2cnc(Cn3nc(-c4ccc(Cl)cc4)n(C[C@H](O)C(F)(F)F)c3=O)n2)C1 (mixture of isomers)
5. CN(C)[C@@H]1CCN(C(=O)c2ccccc2-n2cnc(Cn3nc(-c4ccc(Cl)cc4)n(C[C@H](O)C(F)(F)F)c3=O)n2)C1

1.06
2
1.5
0.145
8.95

Give IC50 for each listed item.
1. O=C(c1cccc(Cl)c1-n1cnc(Cn2nc(-c3ccc(Cl)cc3)n(C[C@H](O)C(F)(F)F)c2=O)n1)N1CCOCC1
2. Cc1ccc(F)cc1NC(=O)c1ccccc1-n1cnc(Cn2nc(-c3ccc(Cl)cc3)n(C[C@H](O)C(F)(F)F)c2=O)n1
3. Cc1csc(NC(=O)c2ccccc2-n2cnc(Cn3nc(-c4ccc(Cl)cc4)n(C[C@H](O)C(F)(F)F)c3=O)n2)n1

1: 6.25; 2: 0.0495; 3: 0.055

Could you report IC50 for every entry in the following list?
1. Cc1nc(C(=O)Nc2ncccc2-n2cnc(Cn3nc(-c4ccc(Cl)cc4)n(C[C@H](O)C(F)(F)F)c3=O)n2)no1
2. CN(C)[C@H]1CCN(C(=O)c2ccccc2-n2cnc(Cn3nc(-c4ccc(Cl)cc4)n(C[C@H](O)C(F)(F)F)c3=O)n2)C1

[0.7, 10.5]
